Entries and their protein stability index values follow.
System: Saccharomyces cerevisiae
Assay: protein stability index of tFT-peptide fusion (C-terminal peptide) (PSI (0-1 scale)); higher = more stable (slower turnover)
Run Conditions: genetic background: cdc53-1; temperature: 37 C

{"Item Sequence": "FEVLINIWFLSA", "protein stability index": 0.388}
{"Item Sequence": "YMVESVWVLLGT", "protein stability index": 0.576}
{"Item Sequence": "SCLSLALLVFFG", "protein stability index": 0.524}
{"Item Sequence": "VLVSYAIVILYL", "protein stability index": 0.141}
{"Item Sequence": "SLVLLLLITFSL", "protein stability index": 0.507}
{"Item Sequence": "RLLLLPGPLALQ", "protein stability index": 0.73}
{"Item Sequence": "FYFRSSFFTICF", "protein stability index": 0.388}
{"Item Sequence": "WVVWVLVGGFGG", "protein stability index": 0.424}
{"Item Sequence": "TNFVVRLRFVLF", "protein stability index": 0.549}
{"Item Sequence": "IRRWGRCRVRCM", "protein stability index": 0.655}

###

Test system: Saccharomyces cerevisiae
Assay: protein stability index of tFT-peptide fusion (C-terminal peptide) (PSI (0-1 scale)); higher = more stable (slower turnover)
Run Conditions: genetic background: das1 deletion; temperature: 30 C
# protein stability index listing for each entry below
Measurement Name: protein stability index

{"Item Sequence": "LAKLINKSCVFK [YKL069W C-terminal 12 aa]", "Data Value": 0.7}
{"Item Sequence": "ASSSDRPTVAAT [RRT5 C-terminal 12 aa]", "Data Value": 0.7}
{"Item Sequence": "LLGAITALFGLI [PLB2 C-terminal 12 aa]", "Data Value": 0.686}
{"Item Sequence": "LYDNIRSGNFGI [MSB1 C-terminal 12 aa]", "Data Value": 0.771}
{"Item Sequence": "TYSEREGNLLNS [RPR2 C-terminal 12 aa]", "Data Value": 0.716}
{"Item Sequence": "CDLVKNSNGLST [YOR200W C-terminal 12 aa]", "Data Value": 0.68}
{"Item Sequence": "AKLFKEIFAYKV [COQ8 C-terminal 12 aa]", "Data Value": 0.664}
{"Item Sequence": "VLIKHDHTNTHI [MMT1 C-terminal 12 aa]", "Data Value": 0.703}
{"Item Sequence": "KLKFLQNTYNND [CCE1 C-terminal 12 aa]", "Data Value": 0.674}
{"Item Sequence": "AVETLKKGGFLP [YDL177C C-terminal 12 aa]", "Data Value": 0.7}
{"Item Sequence": "KQLQEGNRRHKL [DCI1 C-terminal 12 aa]", "Data Value": 0.768}
{"Item Sequence": "INKTLAWMDEGL [ERG26 C-terminal 12 aa]", "Data Value": 0.694}

###

Test system: Saccharomyces cerevisiae
Assay: protein stability index of tFT-peptide fusion (C-terminal peptide) (PSI (0-1 scale)); higher = more stable (slower turnover)
Run Conditions: genetic background: wild type; temperature: 30 C
The following sequences are listed with their measured protein stability index values.

{"Item Sequence": "LFLSFFLPSYNT", "protein stability index": 0.66}
{"Item Sequence": "SRTLYSHLLFFP", "protein stability index": 0.66}
{"Item Sequence": "FFICCPLLVVCS", "protein stability index": 0.109}
{"Item Sequence": "NTRKNTTRKSQE", "protein stability index": 0.637}
{"Item Sequence": "LPTSPMSCHTLT", "protein stability index": 0.76}
{"Item Sequence": "YARVIFGGNWFS", "protein stability index": 0.552}
{"Item Sequence": "VTKAALADLRHM", "protein stability index": 0.609}
{"Item Sequence": "CAHKRTPRLGPE", "protein stability index": 0.66}
{"Item Sequence": "GARRGVSERSPA", "protein stability index": 0.647}
{"Item Sequence": "LGLRSRIYMLVD", "protein stability index": 0.664}
{"Item Sequence": "ATIYTAATTYHV", "protein stability index": 0.713}
{"Item Sequence": "HWYFARTSTVSC", "protein stability index": 0.551}
{"Item Sequence": "RGRWRVGWGVGD", "protein stability index": 0.67}
{"Item Sequence": "GTKGEGGGKGGV", "protein stability index": 0.693}
{"Item Sequence": "CPPPIPPSRPPS", "protein stability index": 0.666}
{"Item Sequence": "NKKKKHTQYKRK", "protein stability index": 0.694}
{"Item Sequence": "DWVYISAGGRYA", "protein stability index": 0.657}
{"Item Sequence": "VSPDVYGVCLRL", "protein stability index": 0.703}
{"Item Sequence": "TLTLVIPTSRDQ", "protein stability index": 0.717}
{"Item Sequence": "PPSPRPALPLSL", "protein stability index": 0.762}
{"Item Sequence": "ASGFLVIPLWVF", "protein stability index": 0.294}
{"Item Sequence": "WLGLFAFRRCLV", "protein stability index": 0.31}
{"Item Sequence": "SAPGIGFYTKSL", "protein stability index": 0.653}
{"Item Sequence": "SPEGYLLSPRCT", "protein stability index": 0.737}
{"Item Sequence": "PSFPSLLPPPPT", "protein stability index": 0.703}
{"Item Sequence": "PLAPPPLSPSPI", "protein stability index": 0.787}
{"Item Sequence": "HVGEVESGGMGG", "protein stability index": 0.707}
{"Item Sequence": "VNILRVYHVARA", "protein stability index": 0.564}
{"Item Sequence": "RPPSPPLPPPLS", "protein stability index": 0.691}
{"Item Sequence": "SAAPVTLSRLPP", "protein stability index": 0.699}
{"Item Sequence": "SPPASFPLPPPP", "protein stability index": 0.68}
{"Item Sequence": "EKKNKKRNKKNK", "protein stability index": 0.697}
{"Item Sequence": "IQRLGTKNTNRI", "protein stability index": 0.647}
{"Item Sequence": "GDLVRNARSLII", "protein stability index": 0.72}
{"Item Sequence": "LLFSPTHEPRIW", "protein stability index": 0.734}
{"Item Sequence": "ARRGATRGHAHV", "protein stability index": 0.684}
{"Item Sequence": "GFISFASRISTS", "protein stability index": 0.722}
{"Item Sequence": "LSSNSTTSATYR", "protein stability index": 0.722}
{"Item Sequence": "TPDLNLYSKVYG", "protein stability index": 0.695}
{"Item Sequence": "ITYRTSGMGIRA", "protein stability index": 0.618}
{"Item Sequence": "CGLSYSISVNMR", "protein stability index": 0.627}

###

Test system: Saccharomyces cerevisiae
Assay: protein stability index of tFT-peptide fusion (C-terminal peptide) (PSI (0-1 scale)); higher = more stable (slower turnover)
Run Conditions: genetic background: wild type; temperature: 30 C

{"Item Sequence": "LFVFVISSSSFP", "protein stability index": 0.306}
{"Item Sequence": "SWRRCLSSIPVA", "protein stability index": 0.303}
{"Item Sequence": "ISVSVVFFVLRF", "protein stability index": 0.279}
{"Item Sequence": "PRINTFVVVRVC", "protein stability index": 0.0722}
{"Item Sequence": "PLRLRCASLFAN", "protein stability index": 0.362}
{"Item Sequence": "ALVWYSLSIIVN", "protein stability index": 0.0403}
{"Item Sequence": "FAIPFVLFFRVT", "protein stability index": 0.173}
{"Item Sequence": "SSMSAVFRLQVC", "protein stability index": 0.232}
{"Item Sequence": "FSLLLSLSLFHC", "protein stability index": 0.2}
{"Item Sequence": "LVCSRFLFAFHC", "protein stability index": 0.0796}
{"Item Sequence": "DIGCLWSKTRLC", "protein stability index": 0.359}
{"Item Sequence": "FQPLELFFVCVF", "protein stability index": 0.181}
{"Item Sequence": "VLISLVLLFRCW", "protein stability index": 0.248}
{"Item Sequence": "KALSSSYFGTRL", "protein stability index": 0.675}
{"Item Sequence": "FFILVFFSLLST", "protein stability index": 0.274}
{"Item Sequence": "LLWALGLVLVEG", "protein stability index": 0.204}
{"Item Sequence": "HPLYWRCVVVLN", "protein stability index": 0.066}
{"Item Sequence": "CSRTRLHCFTAS", "protein stability index": 0.585}
{"Item Sequence": "LGFHFFFTLIFF", "protein stability index": 0.305}
{"Item Sequence": "VCLFWLFLWRIL", "protein stability index": 0.182}
{"Item Sequence": "FFRFNCVFWLFL", "protein stability index": 0.233}
{"Item Sequence": "RSITFFPVCLVK", "protein stability index": 0.289}
{"Item Sequence": "WVVVGWVGVGFR", "protein stability index": 0.378}
{"Item Sequence": "PPPPPLAIPHPT", "protein stability index": 0.674}
{"Item Sequence": "YPVGAAFIRARA", "protein stability index": 0.377}
{"Item Sequence": "ICWVSLYFSMLV", "protein stability index": 0.333}
{"Item Sequence": "SVFRFLFLALLV", "protein stability index": 0.145}
{"Item Sequence": "FLSLPLFILFLS", "protein stability index": 0.0821}
{"Item Sequence": "CVFVRCVDCMSG", "protein stability index": 0.387}
{"Item Sequence": "VALAVRVVVCGA", "protein stability index": 0.108}
{"Item Sequence": "QRTNTIINKRIV", "protein stability index": 0.477}
{"Item Sequence": "PPPPPPLPSPSS", "protein stability index": 0.68}
{"Item Sequence": "FGGVFCVMARLV", "protein stability index": 0.356}
{"Item Sequence": "YSVNSLFCKVFG", "protein stability index": 0.361}
{"Item Sequence": "FLCLLASFVVCF", "protein stability index": 0.285}
{"Item Sequence": "FFVFSFVLFFPL", "protein stability index": 0.322}
{"Item Sequence": "FPPFALLLIIND", "protein stability index": 0.421}
{"Item Sequence": "LPPFGLFLFVFI", "protein stability index": 0.285}
{"Item Sequence": "SLGHIGFWRFAG", "protein stability index": 0.108}
{"Item Sequence": "WRLRIAAVVRSS", "protein stability index": 0.142}
{"Item Sequence": "VFFLVHFHLPMF", "protein stability index": 0.401}
